Below, each of the binders is paired with its reported signal change in competition ELISA (% reduction in OD) value.
- tested on: pre-existing anti-scFv903 antibodies in human serum H96 (human)
- test: competition ADA bridging ELISA
parameter measured: signal change in competition ELISA (% reduction in OD) (%)

binder | recorded value
scFv105 (scFv) scFv: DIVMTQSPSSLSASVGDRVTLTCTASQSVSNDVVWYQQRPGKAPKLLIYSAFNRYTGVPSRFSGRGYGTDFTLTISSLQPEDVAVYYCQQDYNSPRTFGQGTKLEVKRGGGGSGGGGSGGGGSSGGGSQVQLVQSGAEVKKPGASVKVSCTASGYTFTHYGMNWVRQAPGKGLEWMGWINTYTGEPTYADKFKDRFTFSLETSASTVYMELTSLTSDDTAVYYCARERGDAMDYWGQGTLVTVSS | -29
scFv 903 (scFv) scFv: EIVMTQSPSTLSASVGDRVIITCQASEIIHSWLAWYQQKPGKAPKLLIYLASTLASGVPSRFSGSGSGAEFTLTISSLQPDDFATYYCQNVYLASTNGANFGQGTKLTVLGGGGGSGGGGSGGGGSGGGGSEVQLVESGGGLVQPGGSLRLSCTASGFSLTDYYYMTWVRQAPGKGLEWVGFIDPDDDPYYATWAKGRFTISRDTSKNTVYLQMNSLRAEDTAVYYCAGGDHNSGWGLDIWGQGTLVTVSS | -80
scFv 791 (scFv) scFv: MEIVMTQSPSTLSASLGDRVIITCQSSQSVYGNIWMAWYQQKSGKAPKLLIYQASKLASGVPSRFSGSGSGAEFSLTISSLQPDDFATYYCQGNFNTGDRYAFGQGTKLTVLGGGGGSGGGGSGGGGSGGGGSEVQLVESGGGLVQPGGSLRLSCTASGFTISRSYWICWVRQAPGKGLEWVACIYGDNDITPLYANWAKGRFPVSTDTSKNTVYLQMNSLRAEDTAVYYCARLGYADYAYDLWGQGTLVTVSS | -79
scFv 961 (scFv) scFv: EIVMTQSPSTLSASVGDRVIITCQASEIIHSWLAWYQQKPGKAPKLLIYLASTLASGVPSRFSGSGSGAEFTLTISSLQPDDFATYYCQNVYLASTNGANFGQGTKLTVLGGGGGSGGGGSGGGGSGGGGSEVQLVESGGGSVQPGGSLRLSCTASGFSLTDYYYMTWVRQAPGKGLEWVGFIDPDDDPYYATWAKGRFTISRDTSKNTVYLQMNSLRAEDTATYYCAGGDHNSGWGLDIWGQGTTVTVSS | -78
